- Test: Metabolic stability in rat liver microsomes assessed as parent compound remaining; note: time not given here
- Format: ADME, microsome
If the reported Stability equals or exceeds 6%, assign Yes. If not, assign No.

Query string: Check this compound for Stability at or above 6%: N[C@H]1CC[C@@H](N(C[C@H]2Cc3ccccc3CN2)[C@H]2CCCc3cccnc32)CC1
Result string: Yes

Query string: Then this compound: NC(=O)NC/C=C\CN(C[C@H]1Cc2ccccc2CN1)[C@H]1CCCc2cccnc21
Result string: No

Query string: Do the same for NC/C=C\CN(C[C@H]1Cc2ccccc2CN1)[C@H]1CCCc2cccnc21 please
Result string: No

Query string: Try the compound C/C(CN)=C(/F)CN(C[C@H]1Cc2ccccc2CN1)[C@H]1CCCc2cccnc21
Result string: Yes

Query string: Follow-up entry: N[C@H]1CC[C@H](CN(C[C@H]2Cc3ccccc3CN2)[C@H]2CCCc3cccnc32)CC1
Result string: Yes

Query string: C/C(CN(C[C@H]1Cc2ccccc2CN1)[C@H]1CCCc2cccnc21)=C(/F)CN ?
Result string: Yes

Query string: Can you handle NC/C=C/CN(C[C@H]1Cc2ccccc2CN1)[C@H]1CCCc2cccnc21 next?
Result string: Yes

Query string: Now this one: NCC1CC1CN(C[C@H]1Cc2ccccc2CN1)[C@H]1CCCc2cccnc21 (single isomer, unassigned; diastereomer 1)
Result string: No

Query string: Okay, and C/C(=C/CN(C[C@H]1Cc2ccccc2CN1)[C@H]1CCCc2cccnc21)CN ?
Result string: No

Query string: Moving on to NC[C@H]1CC[C@H](CN(C[C@H]2Cc3ccccc3CN2)[C@H]2CCCc3cccnc32)CC1
Result string: Yes

Query string: What would you report for C/C(=C/CN)CN(C[C@H]1Cc2ccccc2CN1)[C@H]1CCCc2cccnc21 ?
Result string: No

Query string: Record: C/C(CN)=C(\F)CN(C[C@H]1Cc2ccccc2CN1)[C@H]1CCCc2cccnc21
Result string: No

Query string: Item: N[C@H]1CC[C@H](N(C[C@H]2Cc3ccccc3CN2)[C@H]2CCCc3cccnc32)CC1
Result string: Yes

Query string: Same question, NCC1=C(CN(C[C@H]2Cc3ccccc3CN2)[C@H]2CCCc3cccnc32)CCCC1 this time
Result string: No

Query string: Input FC1(F)CCC(NC/C=C\CN(C[C@H]2Cc3ccccc3CN2)[C@H]2CCCc3cccnc32)CC1
Result string: No
